# System: redroot pigweed (Amaranthus retroflexus)
# Measurement notes: Test G Pre-Emergence Protocol
# Type: in vivo
# Assay setup: Amaranthus retroflexus, pre-emergence, 312 h, 250 g ai/ha, evaluated after 13 days, read-out: Pigweed, Redroot damage rating (100=total damage to plant; 0=no damage to plant)
Listed molecules paired with reported pest or weed control at 250 g/ha
Write down the numeric answer in % and omit the unit.

Prompt line: Recorded pest or weed control at 250 g/ha for Cc1nccc(NC(=O)[C@@H]2C(=O)N(C)C[C@H]2c2ccc(C(F)(F)F)cc2)c1C (racemic) with redroot pigweed (Amaranthus retroflexus), please?
Response line: 0

Prompt line: Recorded pest or weed control at 250 g/ha for CN1C[C@H](c2cccc(C(F)(F)F)c2)[C@@H](C(=O)Nc2cc(C#N)ccn2)C1=O (racemic) with redroot pigweed (Amaranthus retroflexus), please?
Response line: 0

Prompt line: Recorded pest or weed control at 250 g/ha for Cc1c(Cl)ccc([C@@H]2CN(C)C(=O)[C@H]2C(=O)Nc2cccc(F)c2F)c1F (racemic) with redroot pigweed (Amaranthus retroflexus), please?
Response line: 70

Prompt line: Recorded pest or weed control at 250 g/ha for CN1C[C@@H](c2ccc(C(F)(F)F)cc2)[C@H](C(=O)Nc2cccnn2)C1=O (racemic) with redroot pigweed (Amaranthus retroflexus), please?
Response line: 0

Prompt line: Recorded pest or weed control at 250 g/ha for CN1C[C@H](c2ccc(C(F)(F)F)cc2)[C@@H](C(=O)Nc2cnccc2O)C1=O (racemic) with redroot pigweed (Amaranthus retroflexus), please?
Response line: 0

Values compiled from patent US12077503B2.
